biological target: human IL-13 (source not stated for the assay) (human, UniProt P35225 35-146, limits assumed); assay: cell-based or functional assay
Sequence (P35225 35-146 limits assumed): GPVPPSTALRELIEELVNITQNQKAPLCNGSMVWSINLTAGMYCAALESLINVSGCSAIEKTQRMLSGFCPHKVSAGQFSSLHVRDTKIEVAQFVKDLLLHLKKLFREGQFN
value_kind: IC50, IL-13 induced eotaxin release, n = 1 (nM)
Respond with the bare value in nM.

Worked examples, 3 binders total:
mAb 243 (antibody, V domains shown) VH: EVQLVESGGGLVKPGGSLRLSCAASGFTFSSYSMNWVRQAPGKGLEWVSYISTSNSYIYYADSVKGRFTISRDNAKNSLYLQMNSLRAEDTAVYYCARDQVGATLDAFDIWGQGTMVTVSS VL: DIQMTQSPSSLSASVGDRVTFTCRASQDITDDLGWYQQKPGKAPKRLIYAASSLQSGVPSRFSGSGSGTEFTLTISSLQPEDFATYYCLQHNSYPFTFGPGTKVDIR    0.253
mAb 356 (antibody, V domains shown) VH: EVQLVESGGGLVKPGGSLRLSCAASGFTFSDYNMHWVRQAPGKGLEWVSSISYSSTYIYYADSVRGRFTISRDNAKNSLYLQMNSLRAEDTAVFYCAREDYYYYGLDVWGQGTTVTVSS VL: DIQMTQSPSSLSASVGDRVTITCRASQDIRNDLGWYQQKPGKAPKRLIYDASSLQSGVPSRFSGSGSGTEFTLTISSLQPEDFAIYYCLQHNSYPWTFGQGTKVEIK    1.09
mAb 183 (antibody, V domains shown) VH: EVQLVESGGGLVKPGGSLRLSCAASGFTFSSYSMNWVRQAPGKGLEWVSYISSSYNYIYYGDSVKGRFTISRDNAKNSLYLQMNSLRAEDTAVYYCARDQVGATLDAFDIWGQGTMVTVSS VL: DIQMTQSPSSLSASVGDRVTITCRASQGIGDDLGWYQQKPGKAPKRLIYAASSLQSGVPSRFSGSGSGTEFTLTISSLQPEDFATYYCLQHNSYPFTFGPGTKVDIK    1.04

INPUT: Read the entry mAb 713 (antibody, V domains shown) VH: EVQLLESGGGLVQPGGSLRLSCAASGFTFSSYAMSWVRQAPGKGLEWVSAFSGSGGSTYYADSVKGRFTISRDNSKNTLYLQMNSLRAEDTAVYYCVQDGLGPYFYNYGMDVWGQGTTVTVSS VL: SYELTQPPSVSVSPGQTASITCSGDKLGDKYTCWFQQKPGQSPVLVIYHDSKRPSGIPERFSGSNSGDTATLTISGTQAMDEADYYCQAWDSSTYVFGTGTKVTVLG and write its reported IC50, IL-13 induced eotaxin release, n = 1.
OUTPUT: 0.021
